- study_target: T1, DFNB31_2, Q9P202
- T1 sequence (Q9P202 274-371, limits assumed, looked up): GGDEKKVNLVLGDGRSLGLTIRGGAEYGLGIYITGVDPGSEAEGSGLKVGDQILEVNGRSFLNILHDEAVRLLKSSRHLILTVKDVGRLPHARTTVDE
- assay_summary: holdup assay
- Design: key: below the threshold = too weak to quantify, mostly under pKd 3.1 to 4
- condition_details: plain residues with an end cap or a label only (N-terminal biotin on a linker: ado-ado)

{"columns": ["binder", "pKd"],
 "data": [
  ["PPGKHLVTEV [KCNA7, Q96RP8]", "below the threshold"],
  ["MHIQEKGFHV [EPHA6, Q9UF33]", "below the threshold"],
  ["QKAPTKEFYA [SDC2, P34741]", "below the threshold"],
  ["DPAESMESLV [PTPRG, P23470]", "below the threshold"]
]}
